TARGET OR TEST SYSTEM: T1, human CLDN18.2 (human)
T1 construct: also called huCLDN18.2; hCLDN18.2
MEASUREMENT NOTES: flow cytometry; % positive tumor cells divided by % positive healthy stomach cells
EXPERIMENTAL ENDPOINT: Ratio tumor/stomach (Average)
Note: the reply should be a number with no unit written.

Known Ratio tumor/stomach (Average) results, listed for orientation:
hCl1b (antibody, human IgG1, kappa, V domains shown, Humanized) VH: QVQLVQSGAEVKKPGASVKVSCKASGYTFTDYAMHWVRQAPGQRLEWMGWINTYTGKPTYSQKFQGRVTITRDTSASTAYMELSSLRSEDTAVYYCARAVFYGYTMDAWGQGTLVTVSS VL: DIQMTQSPSSLSASVGDRVTITCRASEDIYSNLAWYQQKPGKAPKLLIFSVKRLQDGVPSRFSGSGSGTDFTLTISSLQPEDFATYYCLQGSNFPLTFGQGTKVEIKR: 53.1
cCl1-1 (antibody, V domains shown, Chimeric antibody from a rat hybridoma; not built in; also called chimeric cCl1-1 antibody) VH: QIQLVQSGPELKKPGESVKISCKASGYTFTDYAMHWVKQAPGKGLKWMGWINTYTGKPTYADDFKGRFVFSLEASASTANLQISNLKNEDTATYFCARAVFYGYTMDAWGQGTSVTVSS VL: DIQMTQSPASLSASLGETISIACRASEDIYSNLAWYQQKSGKSPQLLIFSVKRLQDGVPSRFSGSGSGTQYSLKISGMQPEDEGDYFCLQGSNFPLTFGSGTKLEIK: 74.3
IMAB362 (antibody, human IgG1, kappa, V domains shown, Control, chimeric IgG1, synthesized from the published chains; also called Claudiximab; Zolbetuximab) VH: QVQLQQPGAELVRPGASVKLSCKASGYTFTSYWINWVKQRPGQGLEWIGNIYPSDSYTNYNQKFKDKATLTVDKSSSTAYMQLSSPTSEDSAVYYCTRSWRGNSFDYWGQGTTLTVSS VL: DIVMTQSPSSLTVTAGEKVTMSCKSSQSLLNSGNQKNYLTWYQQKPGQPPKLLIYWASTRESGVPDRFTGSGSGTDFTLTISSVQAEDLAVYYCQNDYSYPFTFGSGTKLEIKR: 0.88

Sample hCl1a (antibody, human IgG1, kappa, V domains shown, Humanized) VH: QVQLVQSGAEVKKPGASVKVSCKASGYTFTDYAMHWVRQAPGQRLEWMGWINTYTGKPTYAQKFQGRVTITRDTSASTAYMELSSLRSEDTAVYYCARAVFYGYTMDAWGQGTLVTVSS VL: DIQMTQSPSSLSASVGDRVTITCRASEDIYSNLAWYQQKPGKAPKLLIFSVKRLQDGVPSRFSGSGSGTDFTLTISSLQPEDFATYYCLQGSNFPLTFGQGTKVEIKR — what was its Ratio tumor/stomach (Average)?
34.7

Sample hCl1c (antibody, human IgG1, kappa, V domains shown, Humanized) VH: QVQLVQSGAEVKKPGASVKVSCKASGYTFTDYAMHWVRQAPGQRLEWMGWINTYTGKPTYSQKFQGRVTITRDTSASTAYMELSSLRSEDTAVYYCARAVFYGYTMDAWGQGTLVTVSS VL: DIQMTQSPSSLSASVGDRVTITCRTSEDIYSNLAWYQQKPGKAPKLLIFAIKRLQDGVPSRFSGSGSGTDFTLTISSLQPEDFATYYCLQGSKFPLTFGQGTKVEIKR — what was its Ratio tumor/stomach (Average)?
74

Sample hCl1f (antibody, human IgG1, kappa, V domains shown, Humanized) VH: QVQLVQSGAEVKKPGASVKVSCKASGYTFTDYAMHWVRQAPGQRLEWMGWINAYTGKPTYAQKFQGRVTITRDTSASTAYMELSSLRSEDTAVYYCARAVFYGYTMDAWGQGTLVTVSS VL: DIQMTQSPSSLSASVGDRVTITCRASEDIYSNLAWYQQKPGKAPKLLIYSVKRLQDGVPSRFSGSGSGTDFTLTISSLQPEDFATYYCLQGSNFPLTFGQGTKVEIKR — what was its Ratio tumor/stomach (Average)?
329

Reference for the values: patent US20240034783A1
